Task for the reader: assign each of the following compounds its reported activation (protection from cell death).
Test: inhibitors of TNF-alpha triggered necroptosis, primary screen, cell-based, Jurkat FADD-/-, single concentration (AID 463075);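 further: necroptosis triggered by 40 ng/mL TNF-alpha added together with compound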
Settings: Jurkat FADD-/- TNF necroptosis rescue, ATP luminescence, 24 h; at 10 µM; hits give high values; 0 = TNF only, 100 = no-TNF cells
Hit rate of the full screen: of about 220,000 compounds, about 150 (0.068%) were called active. The list comes from a sample in which actives are over-represented; it also holds close analogues and randomly drawn compounds.

Exercise: Give its activation (protection from cell death) value. Item: Cc1ccc(S(=O)(=O)NCCc2nnc3ccc(SCc4cccnc4)nn23)cc1
Key: -0.101% (inactive)

Exercise: Dear colleague, I am looking for the recorded activation (protection from cell death) of the following compound: Cc1csc(Nc2ccc(Cl)cc2)[n+]1-c1ccc(Cl)cc1
Key: 52.7% (active)

Exercise: Returns the measured activation (protection from cell death) for the input compound. Input: COc1cccc(C2c3[nH]c4ccccc4c3CCN2Cc2cccc(C)n2)c1 (centres undefined)
Key: 0.616% (inactive)

Exercise: So what's the measured activation (protection from cell death) for this one? O=c1ccnc(Nc2ccc(Cl)cc2)[nH]1
Key: 2.1% (inactive)

Exercise: activation (protection from cell death) lookup needed for O=C(NC(=S)Nc1cccc(-c2ccc(CO)o2)c1)c1cccs1 , thanks.
Key: -0.171% (inactive)

Exercise: Consider the compound Cc1ccc(N2C(=O)SC(N(CC(=O)O)c3ccc(C)cc3)C2=O)cc1 (centres undefined) and give its measured activation (protection from cell death).
Key: 0.355% (inactive)

Exercise: Consider the compound Cc1nnc(NCCO)c2ccccc12 and give its measured activation (protection from cell death).
Key: 2% (inactive)

Exercise: Name the reported activation (protection from cell death) value associated with the compound O=[N+]([O-])c1ccc(N/N=C2/CCCCC2c2ccccn2)c([N+](=O)[O-])c1 (centres undefined)
Key: 2.74% (inactive)

Exercise: // activation (protection from cell death) lookup, key: O=C(Cc1ccccc1)N1N=C(c2ccncc2)CC1(O)C(F)(F)F (centres undefined)
Key: -1.22% (inactive)

Exercise: Using the record for CC(C)CCN1C(=O)c2ccc(C(=O)Nc3cccc(S(N)(=O)=O)c3)cc2C1=O , report its activation (protection from cell death).
Key: -1.31% (inactive)

Exercise: # lookup: activation (protection from cell death) of Cc1nnsc1C(=O)Nc1cccc(Cl)c1C
Key: 5.62% (inactive)

Exercise: # get_value(readout='activation (protection from cell death)', item= N#Cc1c(-c2ccc(Cl)cc2)c2c([nH]c1=S)CCCC2 )
Key: -2.48% (inactive)

Exercise: Could you share which activation (protection from cell death) value was measured for Cc1c(CN2CCCCC2)c(O)n(CCO)c(=O)c1C#N ?
Key: -0.121% (inactive)

Exercise: Need activation (protection from cell death) of C=C(C)COc1ccc(-c2nc(N)ncc2-c2ccccc2OC)c(O)c1 , thanks.
Key: 1.21% (inactive)

Exercise: Return reported activation (protection from cell death); argument: COCCCNC(=O)C1CCC(CNS(=O)(=O)c2ccc(OC)cc2)CC1 (centres undefined)
Key: 1.04% (inactive)

Exercise: Would you kindly share the measured activation (protection from cell death) for Cc1cccc(N2CCN(C(=O)/C=C/c3ccco3)CC2)c1C ?
Key: -4.02% (inactive)

Exercise: Give its activation (protection from cell death) value. Item: Cc1cccc(N=Nc2c(O)[nH]c3ccc(F)cc23)c1
Key: 1.19% (inactive)

Exercise: // returns reported activation (protection from cell death) for input Clc1ncn(CCOc2ccccc2)c1Cl
Key: 3.48% (inactive)

Exercise: Record request: activation (protection from cell death) value, item N#Cc1c(N2CCCCC2)nc(N)c2c(N)nc(SCC(=O)O)cc12
Key: -7.92% (inactive)
